These measurements were taken from the supplement of paper PMC6555819.

- Test system: LXRb:RXRa (NR concentration 270 nM, RXRa partner concentration 90 nM)
- Protocol Text: PBM binding z-score (relative to random genomic background probes); higher = stronger binding; sequences stand for … in GC…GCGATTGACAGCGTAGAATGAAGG

Item Sequence	PBM binding z-score
TCTTATAGATCAAAGGTTAAGAAAGCCGAAGCCT	2.31
CAAACTAGGTCACGAAAGGTCAAGGTCGAATGAC	6.75
CGAACTACGTCAGAACAGGACAGTGAAGGATGAT	-1.05
CCTAGTAGGTCAGGAGGTCACACACCGGATATGA	4.41
TCATATAGGTAAACGGTGAAAGTCGGTGTGGTAA	0.712
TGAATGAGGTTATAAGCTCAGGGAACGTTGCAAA	1.01
GCATATAGGTAATACAAGGTGAAAGTTCGATTGT	1.37
AGAATGAGGTTATTAAGATCAGGGATTTGCGGTC	1.29
GGAACGAGGGCAAGTTAATAGCAGAGTTTGATGG	0.334
GCTGTTAGGTCAGGTTGGTCAGCTAACGGGTACG	1.04
CCTTACGGGACACTCCAGGTTATAGCATCGGAGT	-0.359
GCGACTGGGGCATCAGCAGGTTAGCATAACTTAA	0.063
AGAATGATGTTATACGTAGATCAGGGAAGAAAGT	-0.288
GTACCATGGTGAATAGGTCGTTGATGAGTAGGCG	-0.0798
CCTAGTTGGTCAGGAGGTTACACACCGGATATGA	1.02
CGAACTAGGTCATCCAGAACAGTGAATACATTGA	2.14
GCTAGTTGGTCAGTAAAAGGTCACACCCCGGTCG	3.74
ATCTCTAGGTAAAAGTTCAGTGAGTCCCGAGGAT	1.11
TCTTGTAGACCAATAGAGGTTAAGAAAGTGCGCT	1.84
CGTCCCAGGTCATAGGAGGTCAGTGAAGACAGAT	5.07
GCGACTTGGGCATCAGCAGGTTACCATAACTTAA	-0.214
AGCACGAGGGCAATGAGTTGATAGCACGGGTGGC	-0.297
CGTCAAAGTTCAAGGTAGCGTAACAGAAAGCAGC	3.18
TAGCCTGGGTCATGGGCCAGTATACCACGCGAAC	2.04
CGTCCAAGGTCCTAGGAGGTCAGTGAAGACAGAT	1.71
ATCTCTAGGTAAAAGTTCAGTGTATCCCGAGGAT	1.14
CCTATTAGTTGACCATAAGGGCCACCGAAGCTCG	0.0156
TTACCAAGGTGAGCTCAGGTCGTTGATCCAACTC	0.42
TCTATTAGTTGAAGGCCAACCGACGAGTCCGTTT	0.921
CTTCGGAGGACAACAGGAGGTCAGAGCTGCCAGA	1.45
GCTTACGGATCAAAGGTTATAGCATGAATAGAAT	2.49
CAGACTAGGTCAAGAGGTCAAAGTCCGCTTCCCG	5.69
CAAACTAGGTGACAGAGGTCAAAGTCCGTGCGTA	5
TCTAGTCGGTCACGGAGGTCACACACGACGGGTA	3.54
ATCGAAGGGTCGAGGTGAGTATAGAGAAAGGGAA	1.19
TCATATAGGTGAATGCTAGGTGAAAGTCCGATCT	0.789
ATATGAAGGTTACATCCGGGTCATTCAGGCTATG	3.51
CCTACTGGGCCATCGGGTCATTGATATCAACGTT	1.51
CCAGACAGATGAGAAGGTAACTCAGCCTCGATTA	-0.254
TCTTGGAGATCAAGCAGGTTAAGAAAGCCTGAGT	0.297
CGACCAAGGTCAAAGGTCAGTGAAGAGATGACGG	6.54
CCTTACGGTTCAAGGTTATAGCACGGGTGGTACG	1.66
TCTCGGTGGACACGAAAGGTCAGAGCTCGACATC	3.1
TCTAGTAGATCAACAGGAGGTTAAGAAAGATCGA	0.768
CGTCCAAGGTCATAGGAGGTCAGTGAGGACAGAT	6.18
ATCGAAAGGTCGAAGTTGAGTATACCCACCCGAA	3.19
TTACCAAGGTGAGCTGAGCTCGTTGATCCAACTC	-0.67
CCTGCTAGGTCATGGTCAGCTCATCTACAGTATG	1.95
CCTCGCAGGCCAATCTGGGTCACTCAAGGCTTGA	0.914
TCATATAGGGAATACAGGTGAAAGTCGGCATCTA	0.958
AGAATGAGGTTACCAAAGATCAGCGAAACGCTTG	3.38
